target: Glutamate receptor ionotropic kainate 2 (Homo sapiens); assay: Antagonist activity at human recombinant GluR6 expressed in HEK cells coexpressing aequorine assessed as inhibition of glutamate-induced Ca2+ influx at 10 uM by luminescence reporter assay relative to control; conditions: HEK293
VALUE_TYPE: inhibition (%)
Give just the number in %; leave the unit off.

Solved entries (count: 6):
- NC(=O)c1c(N)sc2c1CCCC2: 13
- CCn1c(=O)[nH]c2sc(-c3ccccc3)c(C)c2c1=O: 9.5
- CCSc1nc2sc(-c3ccccc3)c(C)c2c(=O)[nH]1: 0
- CCOC(=O)c1c(-n2cccc2)sc(-c2ccccc2)c1C: 2
- CCOC(=O)C(=O)Nc1sc(-c2ccccc2)c(C)c1C(=O)OCC: 10
- Cc1c(-c2ccccc2)sc2[nH]c(=S)[nH]c(=O)c12: -2

Ask: Which inhibition reading was recorded for the compound CCn1c(=O)[nH]c2sc3c(c2c1=O)CCCC3 ?
Result: 7.1

Ask: Sample CCOC(=O)c1c(NC(C)=O)sc(-c2ccccc2)c1C — what was its inhibition?
Result: 4

Ask: Would you kindly share the measured inhibition for CCNC(=S)Nc1sc(-c2ccccc2)c(C)c1C(=O)OCC ?
Result: -6.5

Ask: Which inhibition value belongs to CCOC(=O)Nc1sc(-c2ccccc2)c(C)c1C(=O)O ?
Result: 7

Ask: Any idea what its inhibition is? The compound is CCOC(=O)Nc1sc(-c2ccccc2)c(C)c1C(N)=O
Result: 12

Ask: Endpoint output: inhibition of CCOC(=O)c1c(NC(=O)CNCc2ccccc2)sc(-c2ccccc2)c1C . Value?
Result: 4

Measured values drawn from ChEMBL document CHEMBL1154608 for this set.
